- EXPERIMENTAL SYSTEM: T1, FX activation peptide 12-mer AADLDPTENPFD (human)
- T1 peptide: AADLDPTENPFD-biotin
- ASSAY METHOD TEXT: peptide ELISA
Ends that are not written are not given here.
Quick reference for ELISA signal relative to background among some binders
Number, no unit, nothing else.

The examples below pair each entry with its known result.
Nb 501A02 (VHH, monovalent control Nanobody; also called control Nanobody; not shown: C-terminal FLAG3 and HIS6 tag) VHH: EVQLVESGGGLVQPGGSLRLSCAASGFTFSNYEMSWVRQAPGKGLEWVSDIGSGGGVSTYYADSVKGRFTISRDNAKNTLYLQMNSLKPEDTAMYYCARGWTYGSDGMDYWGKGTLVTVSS; 0.79
Nb 701C06 (VHH, monovalent Nanobody; not shown: C-terminal FLAG3 and HIS6 tag) VHH: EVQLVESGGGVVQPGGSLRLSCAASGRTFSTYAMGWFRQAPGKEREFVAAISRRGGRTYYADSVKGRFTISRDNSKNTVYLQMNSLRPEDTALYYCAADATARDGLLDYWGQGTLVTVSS; 0.82

Now for a further binder.
Task: Determine from records and report ELISA signal relative to background for Nb 701B09 (VHH, monovalent Nanobody; also called Nb 701609; not shown: C-terminal FLAG3 and HIS6 tag) VHH: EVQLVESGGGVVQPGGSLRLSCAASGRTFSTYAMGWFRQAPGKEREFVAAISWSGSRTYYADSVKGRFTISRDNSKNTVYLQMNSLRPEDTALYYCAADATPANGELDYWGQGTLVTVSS
Output: 0.79
